target: Tv2483 (Treponema vincentii, UniProt S3MDF0, R115A); assay: biochemical
measurement_name: Kd (µM)
// return numeric value only (unit: µM, not printed)

# Kd of N=C(N)NCCC[C@H](N)C(=O)O = 6.3
